target: PI3Kβ (Homo sapiens); construct: made in house; assay: TR-FRET enzymatic activity assay, PI3Kβ; assay type: biochemical
Kindly state log10 of IC50 for each of the entries shown.
// stored as log10 of IC50 expressed in nM

Fill in: log10 of IC50 of C[C@H](Nc1ncnc2ccc(Cl)nc12)c1nc2c(Cl)ccc(Cl)c2c(=O)n1N1CCNCC1 is ___ 0.90

Same read-out for N#Cc1c(N)nc(N)nc1N[C@H](c1nc2cccc(Cl)c2c(=O)n1C1[C@H]2CNC[C@@H]12)C1CC1 (stereo in doubt) ? 0.30

And what about the compound C[C@H](Nc1nc(N)nc(N)c1C#N)c1nc2c(Cl)ccc(Cl)c2c(=O)n1N1CCNCC1 ? 1.43

Field entry: C[C@H](Nc1nc(N)nc(N)c1C#N)c1nc2cccc(Cl)c2c(=O)n1C1[C@H]2CNC[C@@H]12 (stereo in doubt) 0.48

// repeat for Cc1nc(N)nc(N[C@H](c2nc3cccc(Cl)c3c(=O)n2C2[C@H]3CNC[C@@H]23)C2CC2)c1C#N (stereo in doubt) and report -0.40

---

target: PI3Kβ (Homo sapiens, UniProt P42338); construct: made in house; experiment: TR-FRET enzymatic activity assay, PI3Kβ; assay type: biochemical; conditions: recombinant heterodimeric PI3Kβ 25-50 pM, 2× Km ATP, 30 minutes at 25°C
Sequence (P42338 whole entry): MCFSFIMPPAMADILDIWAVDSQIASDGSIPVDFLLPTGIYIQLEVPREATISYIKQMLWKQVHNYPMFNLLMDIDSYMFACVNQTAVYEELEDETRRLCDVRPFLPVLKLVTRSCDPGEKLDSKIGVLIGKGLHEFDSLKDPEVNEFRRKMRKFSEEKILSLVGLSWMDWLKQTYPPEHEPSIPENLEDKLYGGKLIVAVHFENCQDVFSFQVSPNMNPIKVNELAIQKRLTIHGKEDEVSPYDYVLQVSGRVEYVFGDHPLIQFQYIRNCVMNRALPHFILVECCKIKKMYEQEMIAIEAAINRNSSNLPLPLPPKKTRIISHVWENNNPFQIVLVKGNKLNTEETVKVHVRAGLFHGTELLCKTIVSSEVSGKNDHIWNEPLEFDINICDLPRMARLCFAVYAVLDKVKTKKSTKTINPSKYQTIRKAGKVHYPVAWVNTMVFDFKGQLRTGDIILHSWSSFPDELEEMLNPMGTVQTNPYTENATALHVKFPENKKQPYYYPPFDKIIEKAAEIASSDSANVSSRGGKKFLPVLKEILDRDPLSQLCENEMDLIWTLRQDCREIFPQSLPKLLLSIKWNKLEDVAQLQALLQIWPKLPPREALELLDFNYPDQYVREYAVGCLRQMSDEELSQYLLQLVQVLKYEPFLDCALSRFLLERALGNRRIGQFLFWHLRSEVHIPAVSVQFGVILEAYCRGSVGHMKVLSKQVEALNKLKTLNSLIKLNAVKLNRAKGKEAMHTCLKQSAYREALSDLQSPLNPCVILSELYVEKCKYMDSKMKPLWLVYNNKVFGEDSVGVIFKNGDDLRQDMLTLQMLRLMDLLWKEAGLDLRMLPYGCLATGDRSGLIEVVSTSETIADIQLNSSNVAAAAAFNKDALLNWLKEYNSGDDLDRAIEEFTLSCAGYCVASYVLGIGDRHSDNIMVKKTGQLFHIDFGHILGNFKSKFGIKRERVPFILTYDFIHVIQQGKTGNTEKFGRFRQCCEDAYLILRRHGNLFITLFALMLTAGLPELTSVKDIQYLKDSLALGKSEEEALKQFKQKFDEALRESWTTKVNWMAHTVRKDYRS
Sequence (P27986 whole entry partner): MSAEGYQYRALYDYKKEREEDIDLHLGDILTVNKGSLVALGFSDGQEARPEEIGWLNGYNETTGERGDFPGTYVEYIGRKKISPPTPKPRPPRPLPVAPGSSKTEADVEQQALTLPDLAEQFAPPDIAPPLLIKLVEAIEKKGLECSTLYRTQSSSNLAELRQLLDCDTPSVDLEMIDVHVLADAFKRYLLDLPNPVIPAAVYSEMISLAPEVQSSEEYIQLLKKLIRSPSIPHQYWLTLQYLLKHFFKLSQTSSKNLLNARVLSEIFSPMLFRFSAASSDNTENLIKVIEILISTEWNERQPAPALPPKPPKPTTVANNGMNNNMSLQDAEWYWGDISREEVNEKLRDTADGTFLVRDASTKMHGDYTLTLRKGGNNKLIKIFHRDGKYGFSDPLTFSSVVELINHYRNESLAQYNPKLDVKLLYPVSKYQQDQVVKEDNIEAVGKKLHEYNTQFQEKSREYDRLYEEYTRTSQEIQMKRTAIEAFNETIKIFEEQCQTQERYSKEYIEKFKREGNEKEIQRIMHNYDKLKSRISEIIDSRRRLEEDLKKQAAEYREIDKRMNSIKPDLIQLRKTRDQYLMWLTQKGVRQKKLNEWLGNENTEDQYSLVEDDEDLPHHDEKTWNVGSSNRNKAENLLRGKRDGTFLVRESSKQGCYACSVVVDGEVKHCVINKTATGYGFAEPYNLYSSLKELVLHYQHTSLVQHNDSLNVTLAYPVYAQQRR
Assign log10 of IC50 to each entry below.
# log10 transformed; quantity=IC50; unit=nM

Look up log10 of IC50 for this compound: C[C@H](Nc1ncnc(N)c1C#N)c1nc2cccc(Cl)c2c(=O)n1C1CCCNCC1 (stereo partly drawn) [Compound 84] 1.51

Same lookup for C[C@H](Nc1nc(N)nc(N)c1C#N)c1nc2c(Cl)ccc(Cl)c2c(=O)n1N1CCNCC1 [Compound 53] , please. 0.60

Do the same for CC[C@H](Nc1nc(N)nc(C)c1C#N)c1nc2cccc(Cl)c2c(=O)n1N1CCN(Cc2ccc(F)cc2)CC1 [Compound 90] please 1.72

Thanks! And C[C@H](NC(=O)c1c(N)nn2cccnc12)c1nc2cccc(Cl)c2c(=O)n1N1CCNCC1 [Compound 36] ? 0.78

Here is the next compound: C[C@H](Nc1nc(N)nc(N)c1C#N)c1nc2cccc(Cl)c2c(=O)n1C1CCN(Cc2ccccc2)CC1 [Compound 101] 1.64

Try the compound C[C@H](Nc1ncnc2scnc12)c1nc2cccc(Cl)c2c(=O)n1N1CCN(CC(F)F)CC1 [Compound 115] 3.26

Note, next up: CC(C)N1CCN(n2c([C@H](C)Nc3nc(N)nc(N)c3C#N)nc3cccc(Cl)c3c2=O)CC1 [Compound 88] 2.08

Consider next the compound N#Cc1c(N)nc(N)nc1N1CCC[C@@H]1c1nc2cccc(F)c2c(=O)n1N1CCN(Cc2ccccc2)CC1 (stereo in doubt) [Compound 124] in the same way. 3.11

// next record Cc1nc(N)nc(N[C@@H](C)c2nc3c(F)ccc(Cl)c3c(=O)n2N2CCN(Cc3ccccc3)CC2)c1C#N [Compound 118] 1.15

Same again, this time with CN1CCN(n2c([C@@H](Nc3nc(N)nc(N)c3Cl)C3CC3)nc3cccc(Cl)c3c2=O)CC1 [Compound 2] 2.98

Moving on to C[C@H](Nc1ncnc2ccoc12)c1nc2cccc(Cl)c2c(=O)n1N1CCNCC1 [Compound 34] 1.92

Subsequent entry: C[C@H](Nc1nc(N)nc(N)c1C#N)c1nc2cccc(Cl)c2c(=O)n1[C@@H]1CCOC1 [Compound 137] 1.67

Similarly, N#Cc1c(N)ncnc1N[C@H](c1nc2cccc(Cl)c2c(=O)n1N1CCNCC1)C1CC1 [Compound 102] ? 1.76

What do we get for C[C@H](Nc1ncnc2scnc12)c1nc2c(F)ccc(Cl)c2c(=O)n1N1CCNCC1 [Compound 50] ? 1.18

Entry C[C@H](Nc1nc(N)nc(N)c1C#N)c1nc2cccc(Cl)c2c(=O)n1[C@H]1CCCNC1 [Compound 28] please 2.23

Item: C[C@H](Nc1nc(N)nc(N)c1C#N)c1nc2cccc(Cl)c2c(=O)n1N1CCC(N)CC1 [Compound 129] 2.08

Same again, this time with C[C@H](Nc1ncnc(N)c1C#N)c1nc2cccc(Cl)c2c(=O)n1N1CCCNCC1 [Compound 66] 2.57

Also check CC[C@H](Nc1nc(N)nc(N)c1C#N)c1nc2cccc(Cl)c2c(=O)n1N1CCN(Cc2ccc(OC)cc2)CC1 [Compound 92] 1.61

How about C[C@H](Nc1nc(N)nc(N)c1Cl)c1nc2cccc(Cl)c2c(=O)n1C1CCN(CC(F)(F)F)CC1 [Compound 104] ? 4.00

What do you get for CC(C)C[C@H](Nc1ncnc(N)c1C#N)c1nc2cccc(Cl)c2c(=O)n1N1CCNCC1 [Compound 74] ? 2.76

Queued: N#Cc1c(N)nc(N)nc1N[C@H](c1nc2cccc(Cl)c2c(=O)n1N1CCN(Cc2ccccc2)CC1)C1CC1 [Compound 93] 1.68

Now consider C[C@H](Nc1nc(N)nc(N)c1C#N)c1nc2cccc(Cl)c2c(=O)n1C1CCN(CC(F)(F)F)C1 (stereo partly drawn) [Compound 119] . 2.56

And for CC[C@H](Nc1nc(N)nc(N)c1C#N)c1nc2cccc(Cl)c2c(=O)n1N1CCN(Cc2ccc(F)cc2)CC1 [Compound 91] ? 1.77

Same read-out for C[C@H](Nc1nc(N)nc(N)c1Cl)c1nc2c(F)ccc(Cl)c2c(=O)n1N1CCN(Cc2ccccc2)CC1 [Compound 117] ? 2.76

And what about the compound C[C@H](Nc1ncnc(N)c1C#N)c1nc2cccc(Cl)c2c(=O)n1N1CCC(N)C1 (stereo partly drawn) [Compound 130] ? 1.79

Repeat with C[C@H](Nc1nc(N)nc(Cl)c1C#N)c1nc2cccc(Cl)c2c(=O)n1N1CCN(CC(F)F)CC1 [Compound 113] 2.78

Same thing, different compound: O=c1c2c(Cl)cccc2nc([C@@H](Nc2ncnn3ccnc23)C2CC2)n1N1CCNCC1 [Compound 43] 1.48

Proceed to C[C@H](Nc1nc(N)nc(N)c1C#N)c1nc2c(F)ccc(F)c2c(=O)n1N1CCNCC1 [Compound 39] 0.60

Now consider C[C@H](Nc1ncnn2ccnc12)c1nc2cccc(Cl)c2c(=O)n1C1CCCNCC1 (stereo partly drawn) [Compound 82] and answer again. 2.68

How about C[C@H](Nc1nc(N)nc(N)c1C#N)c1nc2cccc(Cl)c2c(=O)n1[C@@H]1CCNC1 [Compound 31] ? 1.89

---

target: PI3Kγ (Homo sapiens); construct: made in house; assay: TR-FRET enzymatic activity assay, PI3Kγ; format: biochemical; conditions: recombinant heterodimeric PI3Kγ 2 nM, 2× Km ATP, 30 minutes at 25°C
Please respond with reported IC50 for every item in the list.

# get_value(readout='IC50', item= C[C@H](Nc1ncnc2ccc(Cl)nc12)c1nc2cccc(Cl)c2c(=O)n1N1CCNCC1 ) 3.2 µM

Would you mind doing C[C@H](Nc1ncnc(N)c1C#N)c1nc2cccc(Cl)c2c(=O)n1N1CCN(C)CC1 as well? > 10 µM

What about this compound? C[C@H](Nc1nc(N)nc(N)c1C#N)c1nc2cccc(Cl)c2c(=O)n1[C@@H]1CCCNCC1 > 10 µM

Another compound to look at: O=c1c2c(Cl)cccc2nc([C@@H](Nc2ncnn3ccnc23)C2CC2)n1N1CCNCC1 > 10 µM

---

Can you tell me pIC50 for the items I'm about to list?
biological target: PI3Kγ (Homo sapiens); construct: made in house; assay: TR-FRET enzymatic activity assay, PI3Kγ; format: biochemical; details: recombinant heterodimeric PI3Kγ 2 nM, 2× Km ATP, 30 minutes at 25°C
pIC50: −log10 of the molar value.

Please tell me: pIC50 of CC(C)C[C@H](Nc1nc(N)nc(N)c1C#N)c1nc2cccc(Cl)c2c(=O)n1N1CCNCC1 [Compound 75] , system PI3Kγ (Homo sapiens)? < 5.00

Further, for N#Cc1c(N)nc(N)nc1N[C@H](c1nc2c(F)ccc(F)c2c(=O)n1N1CCNCC1)C1CC1 [Compound 127] ? < 5.00

Then what about the compound Cc1nc(N)c(C(=O)N[C@@H](C)c2nc3cccc(Cl)c3c(=O)n2N2CCNCC2)nc1C [Compound 59] ? < 5.00

Let us now turn to C[C@H](Nc1nc(N)nc(N)c1C#N)c1nc2cccc(Cl)c2c(=O)n1N1CCNC2(CC2)C1 [Compound 7] 6.07

---

Assign IC50 to each entry below.
target: PI3Kγ (Homo sapiens, UniProt P48736); construct: made in house; assay: TR-FRET enzymatic activity assay, PI3Kγ; assay type: biochemical; conditions: recombinant heterodimeric PI3Kγ 2 nM, 2× Km ATP, 30 minutes at 25°C
Sequence (P48736 whole entry): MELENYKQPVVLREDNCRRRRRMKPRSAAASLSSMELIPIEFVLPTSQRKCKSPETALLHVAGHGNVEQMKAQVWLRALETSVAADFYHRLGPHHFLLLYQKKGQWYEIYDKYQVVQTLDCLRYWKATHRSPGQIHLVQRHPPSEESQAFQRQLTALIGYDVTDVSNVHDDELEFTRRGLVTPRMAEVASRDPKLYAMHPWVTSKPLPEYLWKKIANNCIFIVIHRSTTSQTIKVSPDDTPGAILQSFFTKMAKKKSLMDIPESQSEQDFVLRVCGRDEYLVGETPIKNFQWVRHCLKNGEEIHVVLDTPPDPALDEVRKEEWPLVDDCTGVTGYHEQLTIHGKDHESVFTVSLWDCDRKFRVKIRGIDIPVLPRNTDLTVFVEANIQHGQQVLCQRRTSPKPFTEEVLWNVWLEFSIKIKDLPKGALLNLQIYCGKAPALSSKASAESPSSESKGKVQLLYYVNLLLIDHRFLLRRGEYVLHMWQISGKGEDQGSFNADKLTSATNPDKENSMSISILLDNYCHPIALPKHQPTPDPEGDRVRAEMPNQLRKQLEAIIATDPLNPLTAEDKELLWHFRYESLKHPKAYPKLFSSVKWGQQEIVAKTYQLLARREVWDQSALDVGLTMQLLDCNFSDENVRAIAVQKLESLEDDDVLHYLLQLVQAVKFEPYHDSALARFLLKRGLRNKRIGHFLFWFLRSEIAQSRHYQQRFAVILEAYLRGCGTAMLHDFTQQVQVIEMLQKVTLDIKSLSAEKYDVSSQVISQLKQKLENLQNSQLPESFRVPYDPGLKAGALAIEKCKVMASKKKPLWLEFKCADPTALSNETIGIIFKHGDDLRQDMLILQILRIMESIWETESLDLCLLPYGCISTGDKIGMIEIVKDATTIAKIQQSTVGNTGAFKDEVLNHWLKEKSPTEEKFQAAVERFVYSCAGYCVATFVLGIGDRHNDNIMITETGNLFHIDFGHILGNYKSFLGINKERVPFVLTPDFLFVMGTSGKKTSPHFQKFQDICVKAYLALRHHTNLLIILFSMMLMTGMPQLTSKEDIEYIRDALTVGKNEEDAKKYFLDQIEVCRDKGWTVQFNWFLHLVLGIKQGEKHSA
Sequence (Q8WYR1 whole entry partner): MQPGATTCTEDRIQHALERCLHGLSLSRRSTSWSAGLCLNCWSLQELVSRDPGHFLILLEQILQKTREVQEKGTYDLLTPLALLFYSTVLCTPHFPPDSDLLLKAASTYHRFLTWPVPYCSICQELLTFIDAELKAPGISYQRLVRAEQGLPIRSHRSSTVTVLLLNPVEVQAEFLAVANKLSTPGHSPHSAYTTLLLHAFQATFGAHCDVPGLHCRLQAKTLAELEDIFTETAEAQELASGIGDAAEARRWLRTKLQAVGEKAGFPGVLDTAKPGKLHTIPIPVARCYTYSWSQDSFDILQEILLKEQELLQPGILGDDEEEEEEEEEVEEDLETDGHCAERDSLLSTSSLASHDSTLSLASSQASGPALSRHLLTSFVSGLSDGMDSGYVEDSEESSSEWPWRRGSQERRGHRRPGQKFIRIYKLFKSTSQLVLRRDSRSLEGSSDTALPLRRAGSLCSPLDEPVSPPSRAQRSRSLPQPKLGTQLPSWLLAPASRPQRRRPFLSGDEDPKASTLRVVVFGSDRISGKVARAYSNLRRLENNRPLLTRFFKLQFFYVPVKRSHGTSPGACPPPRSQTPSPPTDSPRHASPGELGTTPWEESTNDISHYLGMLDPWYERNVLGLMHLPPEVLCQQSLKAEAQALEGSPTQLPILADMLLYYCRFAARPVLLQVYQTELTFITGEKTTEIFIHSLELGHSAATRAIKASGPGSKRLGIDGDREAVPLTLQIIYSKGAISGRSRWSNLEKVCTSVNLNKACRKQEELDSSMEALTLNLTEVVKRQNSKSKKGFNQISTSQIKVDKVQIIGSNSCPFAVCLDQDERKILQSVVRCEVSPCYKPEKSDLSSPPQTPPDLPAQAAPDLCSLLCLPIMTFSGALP

Record request: IC50 value, item C[C@H](Nc1ncnc(N)c1C#N)c1nc2cccc(Cl)c2c(=O)n1C1CCCNC1 (stereo partly shown) > 10000 nM

And then O=c1c2c(F)ccc(F)c2nc([C@@H](Nc2ncnn3ccnc23)C2CC2)n1N1CCNCC1 , what is it? > 10000 nM

Again, but for C[C@H](Nc1nc(N)nc(N)c1C#N)c1nc2cccc(Cl)c2c(=O)n1N1CCN(CCOC(C)(C)C)CC1 1000 nM

Again, but for C[C@H](Nc1ncnc(N)c1C#N)c1nc2cccc(Cl)c2c(=O)n1C1CCN(CC(F)(F)F)CC1 > 10000 nM

Then what about the compound Cc1nc(N)nc(N[C@@H](C)c2nc3c(F)ccc(Cl)c3c(=O)n2N2CCN(Cc3ccccc3)CC2)c1C#N ? 650 nM

Try C[C@H](Nc1nc(N)nc(N)c1C#N)c1nc2cccc(Cl)c2c(=O)n1C1CCNCC1 next. > 10000 nM

Also check C[C@H](Nc1nc(N)nc(Cl)c1C#N)c1nc2cccc(Cl)c2c(=O)n1N1CCN(CC(F)F)CC1 1300 nM

Reference source for all entries: patent EP3154958B1
